- System: OVCAR4
- TEST_NAME: Euclidean distance of Cell Painting phenotypic profile (signed KS, 77 features) to DMSO centroid (dimensionless distance); 5 or 10 uM (library dependent); higher = stronger phenotypic change vs DMSO (phenoactivity)
- CONDITION_CONTEXT: 48 h
Label scheme, based on Euclidean distance: low = under 1, mid = from 1 up to 2, high = 2 and over

Which band does CCOC(=O)C1=C[C@@H](OC(CC)CC)[C@H](NC(C)=O)[C@@H](N)C1 [Oseltamivir Phosphate] fall in? mid

Which band does `CCOc1nc2cccc(C(=O)O)c2n1Cc1ccc(-c2ccccc2-c2noc(=O)[nH]2)cc1` fall in? low

---

Euclidean distance values, listed per item
- Test system: A549
- TEST_NAME: Euclidean distance of Cell Painting phenotypic profile (signed KS, 77 features) to DMSO centroid (dimensionless distance); 5 or 10 uM (library dependent); higher = stronger phenotypic change vs DMSO (phenoactivity)
- CONDITION_CONTEXT: 48 h
Structures can show the parent of a compound that is named as a salt.
Answer with a bare number; do not write a unit.

MOLECULE: CC(/C=C/C(=O)NO)=C\[C@@H](C)C(=O)c1ccc(N(C)C)cc1
Euclidean distance: 4.26

MOLECULE: OC[C@H]1O[C@@H](O[C@@H]2[C@@H](CO)OC(O)(CO)[C@H]2O)[C@H](O)[C@@H](O)[C@H]1O (mixture of isomers)
Euclidean distance: 0.822

MOLECULE: Cc1nc2c([nH]1)-c1ccccc1N(C(=O)c1ccc(NC(=O)c3ccccc3-c3ccccc3)cc1)CC2 [Conivaptan HCl]
Euclidean distance: 1.1

MOLECULE: Cc1ncc(CO)c(CO)c1O [Pyridoxine HCl]
Euclidean distance: 0.861

MOLECULE: CC(C)(Sc1cc(C(C)(C)C)c(O)c(C(C)(C)C)c1)Sc1cc(C(C)(C)C)c(O)c(C(C)(C)C)c1
Euclidean distance: 0.681

Provide Euclidean distance value for the following molecule: OC(CCN1CCCC1)(c1ccccc1)C1CCCCC1 (stereo not drawn) [Procyclidine HCl] 0.891

Provide Euclidean distance value for the following molecule: CCC(C)n1ncn(-c2ccc(N3CCN(c4ccc(OCC5COC(Cn6cncn6)(c6ccc(Cl)cc6Cl)O5)cc4)CC3)cc2)c1=O (stereo not drawn) 2.48

Provide Euclidean distance value for the following molecule: `CCc1cc(Nc2nccc(-c3c(-c4ccc(OC)c(C(=O)Nc5c(F)cccc5F)c4)nc4ccccn34)n2)c(OC)cc1N1CCC(N2CCN(S(C)(=O)=O)CC2)CC1` 1.6

---

- Tested on: DU145
- TEST_NAME: Euclidean distance of Cell Painting phenotypic profile (signed KS, 77 features) to DMSO centroid (dimensionless distance); 5 or 10 uM (library dependent); higher = stronger phenotypic change vs DMSO (phenoactivity)
- CONDITION_CONTEXT: 48 h
Mark true (1) for reported Euclidean distance of 2 or greater; mark false (0) for anything smaller.

COMPOUND: O=C(O)CC1CC(c2ccccc2)=NO1 (configuration not stated)
ASSIGNED_LABEL: false (0)

Check the entry CC(N)C12CC3CC(CC(C3)C1)C2 (configuration not stated) [Rimantadine] : does Euclidean distance equal or exceed 2? false (0)

Check the entry `Cc1ccc(C(=O)Nc2cccc(C(F)(F)F)c2)cc1Nc1nc(-c2cccnc2)nc2c1cnn2C` : does Euclidean distance equal or exceed 2? true (1)
